Attribution: ChEMBL document CHEMBL1961873

Listed here are compounds together with their documented inhibition.
biological target: Tyrosine-protein kinase FRK (Homo sapiens) (UniProt P42685); settings: at 1 µM;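 note: reported percent inhibition is a mean value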
Sequence (P42685 whole entry): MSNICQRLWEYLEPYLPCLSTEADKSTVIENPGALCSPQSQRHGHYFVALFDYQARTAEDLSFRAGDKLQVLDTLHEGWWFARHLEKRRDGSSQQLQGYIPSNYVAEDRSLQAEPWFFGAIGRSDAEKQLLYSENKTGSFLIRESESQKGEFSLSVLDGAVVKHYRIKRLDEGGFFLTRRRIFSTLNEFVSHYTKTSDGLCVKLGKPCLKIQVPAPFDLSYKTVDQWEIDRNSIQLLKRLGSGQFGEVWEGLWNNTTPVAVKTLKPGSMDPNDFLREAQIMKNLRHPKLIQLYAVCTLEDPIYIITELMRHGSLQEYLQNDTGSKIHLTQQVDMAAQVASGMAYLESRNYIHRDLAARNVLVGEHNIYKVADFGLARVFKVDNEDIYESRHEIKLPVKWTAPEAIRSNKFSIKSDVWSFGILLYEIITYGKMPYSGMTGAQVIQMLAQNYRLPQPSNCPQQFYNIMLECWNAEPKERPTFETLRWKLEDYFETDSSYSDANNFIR
I only need the number, in %, no unit after it.

# smiles_code, unit_of_measurement, inhibition
data = [
    ("O=C(Nc1ccc(Oc2ccc3[nH]c(NC(=O)c4ccco4)nc3c2)cc1)Nc1cc(C(F)(F)F)ccc1F", "%", 2.9),
]

Using the record for O=C1Nc2ccc(-c3cccnc3)cc2C1=Cc1cc(Br)c(O)c(Br)c1 , report its inhibition. 5.49

Need inhibition, item NC(=O)c1sc(-n2cnc3ccccc32)cc1OCc1ccccc1Br 3.29

Given the entry Cc1ccc(O)cc1Nc1ccnc2ccc(S(C)(=O)=O)cc12 , report its measured inhibition. 95.7

Quick check: inhibition of COc1cccc(-n2ncc3c(N/N=C/c4ccc(C)cc4)ncnc32)c1 ? 5.6

Look at this compound and give its reported inhibition. COc1cc2ncnc(Nc3ccc4c(cnn4Cc4ccccc4)c3)c2cc1OC 6.16

Looking for the measured inhibition of C[C@@H](Oc1cc(-n2cnc3ccc(OCC4CCN(C)CC4)cc32)sc1C(N)=O)c1ccccc1C(F)(F)F , can you help? 0.5
